Reference source: patent US20240025892A1

Tested on: CRTC2 (TORC2)
assay_info: CRTC2 nuclear translocation (PathHunter U2OS)
Assay type: cell-based
experimental_conditions: Homo sapiens, U2OS, read-out: CRTC2 nuclear translocation EC50
parameter_measured: EC50

## Task Look up EC50 with CRTC2 (TORC2) for this compound: CCc1nnc(-c2c(OC)cc(-c3cnc4cc(-c5cnn(C)c5)ccn34)cc2OC)o1
## Result 147 nM

====

assayed_target: Recombinant SIK2 (Homo sapiens (Human), UniProt Q9H0K1)
Sequence (Q9H0K1 whole entry): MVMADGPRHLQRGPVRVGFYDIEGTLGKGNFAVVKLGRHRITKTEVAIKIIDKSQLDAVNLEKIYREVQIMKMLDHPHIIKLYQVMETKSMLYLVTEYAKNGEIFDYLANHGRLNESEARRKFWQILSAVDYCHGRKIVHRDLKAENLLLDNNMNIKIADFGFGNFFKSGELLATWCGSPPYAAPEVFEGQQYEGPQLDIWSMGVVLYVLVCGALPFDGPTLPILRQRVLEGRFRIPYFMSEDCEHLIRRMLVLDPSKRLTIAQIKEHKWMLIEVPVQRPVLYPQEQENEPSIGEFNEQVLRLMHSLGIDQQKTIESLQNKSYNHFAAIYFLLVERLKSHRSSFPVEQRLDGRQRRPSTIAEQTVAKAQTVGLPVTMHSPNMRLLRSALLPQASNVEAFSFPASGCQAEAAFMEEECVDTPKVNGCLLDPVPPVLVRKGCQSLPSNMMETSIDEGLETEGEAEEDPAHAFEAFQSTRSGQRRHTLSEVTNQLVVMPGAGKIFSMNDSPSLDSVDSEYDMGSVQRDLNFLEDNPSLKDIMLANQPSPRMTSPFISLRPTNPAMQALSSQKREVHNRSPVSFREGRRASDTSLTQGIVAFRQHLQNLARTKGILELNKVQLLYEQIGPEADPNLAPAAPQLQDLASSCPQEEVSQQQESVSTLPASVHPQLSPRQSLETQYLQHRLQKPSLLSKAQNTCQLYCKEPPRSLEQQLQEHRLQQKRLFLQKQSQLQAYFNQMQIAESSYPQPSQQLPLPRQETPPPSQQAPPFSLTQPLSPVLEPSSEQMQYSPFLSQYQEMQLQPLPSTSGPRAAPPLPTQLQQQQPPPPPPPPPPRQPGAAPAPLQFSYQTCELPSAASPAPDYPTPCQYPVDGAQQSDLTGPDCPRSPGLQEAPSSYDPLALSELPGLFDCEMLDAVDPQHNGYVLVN
assay_info: biochemical
experimental_conditions: initial in vitro testing; read-out: SIK2 inhibition IC50
parameter_measured: IC50

## Task I have this compound here, COc1cc(-c2cnc3cc(-c4cnn(C5CC5)c4)ccn23)cc(OC)c1C(=O)NN [Cmpd. 55A] , and I need its recorded IC50.
## Result < 0.1 nM

====

assayed_target: NanoLuc-SIK2 fusion in HEK293 cells (Homo sapiens (Human), UniProt Q9H0K1)
Sequence (Q9H0K1 whole entry, the tested form may be a part): as the sequence (Q9H0K1 whole entry) above
assay_info: cell-based
experimental_conditions: HEK293 cells, compounds for 60 minutes; read-out: SIK2 NanoBRET
Rule: measured IC50 below 40 nM gets 1 (yes); anything equal to or greater than 40 nM gets 0 (no).

Recorded results for 3 compounds are shown here.
## Task Is the reported IC50 for N#Cc1ccc(-c2cnc3cc(C(=O)NCc4cn5ccccc5n4)ccn23)cc1 strictly below 40 nM?
## Result 0 (no)

## Task Try this compound too: N#Cc1ccc(-c2cnc3cc(-c4cnn(C5CC5)c4)ccn23)cc1
## Result 1 (yes)

## Task Try this compound too: N#Cc1ccc(-c2cnc3cc(C(=O)NCc4nc5ccccc5[nH]4)ccn23)cc1
## Result 0 (no)

---
## Task Is the reported IC50 for N#Cc1ccc(-n2cnc3cc(C(=O)NCc4cn5ccccc5n4)ccc32)cc1 strictly below 40 nM?
## Result 0 (no)

## Task Try this compound too: CC1(COc2ccc3c(c2)ncn3-c2ccc3cccc(N4CCC5(CCN5)CC4)c3n2)COC1
## Result 1 (yes)

## Task Try this compound too: CCc1nnc(-c2ccc(-c3cnc4cc(-c5cnn(C)c5)ccn34)cc2OC)o1
## Result 0 (no)

## Task Try this compound too: CC1(COc2ccc3c(c2)ncn3-c2ccc3cccc(N4CC(N)C4)c3n2)COC1
## Result 0 (no)

## Task Try this compound too: N#Cc1ccc(-c2cnn3cc(C(=O)NCc4cccnc4)ccc23)cc1
## Result 0 (no)

====

IC50 for assorted compounds
assayed_target: Recombinant SIK2 (Homo sapiens (Human))
assay_info: biochemical
experimental_conditions: recombinant SIK2 2.5 nM, 1 μM ATP; read-out: SIK2 IC50
I only need the number, in nM, no unit after it.

Some solved entries appear below for comparison.
## Task I have this compound here, N#Cc1ccc(-c2cnc3cc(C(=O)NCc4cnccn4)ccn23)cc1 [Example 21] , and I need its recorded IC50.
## Result 118

## Task Try this compound too: N#Cc1ccc(-c2cnc3cc(C(=O)NCc4nc5ccccc5[nH]4)ccn23)cc1 [Example 22]
## Result 5.58

## Task Try this compound too: CCc1nc(-c2c(OC)cc(-c3cnc4cc(-c5cnn(C)c5)ccn34)cc2OC)no1 [Example 61]
## Result 3.07

---
## Task I have this compound here, NC1CCN(c2cccc3ncc(-n4cnc5cc(OCC6CS(=O)(=O)C6)ccc54)nc23)CC1 [Example 14] , and I need its recorded IC50.
## Result 16.1

## Task Try this compound too: CCn1cc(-c2ccn3c(-c4ccc(-c5nnc(C)o5)cc4)cnc3c2)cn1 [Example 56]
## Result 533
